tested on: HCT-116 colon; assay: NCI tumour cell line growth inhibition, 48 h; in the data active = GI50 below about 0.43 µM; inactive = the rest
Choose one outcome from this list and give only that: t for active, f for inactive

Give the logged outcome of this assay for the following compound: CNc1c2ccccc2nc2occ(Cl)c12 f

I'd appreciate the recorded outcome for O=C(CCN1CCCC1)Nc1ccc2c(Nc3ccc(F)cc3)c3ccccc3nc2c1 from this test. f

What outcome does the record of this test show for CN(C)S(=O)(=O)c1cccc(C(=O)Nc2nc(-c3ccc(F)c(F)c3)cs2)c1 ? f

Hello, I am checking results. What call was entered for COc1cc(/C=C/C(=O)c2c(C)n([O-])c3ccccc3[n+]2=O)cc(OC)c1OC ? f

Status in this test for Nc1[nH]nc(Nc2ccccc2)c1-c1nc2ccccc2s1 ? f

# outcome recorded in this test, key = COc1ccc2[nH]c3ccc4cc[n+](CCN5CCC(C6CCN(CC[n+]7ccc8ccc9[nH]c%10ccc(OC)cc%10c9c8c7)CC6)CC5)cc4c3c2c1 t

These measurements were taken from PubChem BioAssay (NCI).
